# tested-on: DNA polymerase III α subunit truncation α917–1160 (E. coli, UniProt P10443 917-1160)
# Sequence (P10443 917-1160): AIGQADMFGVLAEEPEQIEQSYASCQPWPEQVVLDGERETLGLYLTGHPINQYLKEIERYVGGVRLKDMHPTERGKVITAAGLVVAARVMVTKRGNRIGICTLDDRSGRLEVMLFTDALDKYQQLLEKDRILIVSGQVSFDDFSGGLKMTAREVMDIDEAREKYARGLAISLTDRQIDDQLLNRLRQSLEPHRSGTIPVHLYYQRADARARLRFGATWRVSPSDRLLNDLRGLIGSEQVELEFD
# test: other fluorescence titration
measurement-type: Kd (µM)
Report the value in µM with no unit label.

Worked set:
binder: UmuD, wild-type full-length (homodimer UmuD2) (natural protein) MLFIKPADLREIVTFPLFSDLVQCGFPSPAADYVEQRIDLNQLLIQHPSATYFVKASGDSMIDGGISDGDLLIVDSAITASHGDIVIAAVDGEFTVKKLQLRPTVQLIPMNSAYSPITISSEDTLDVFGVVIHVVKAMR
reported: 13.9

binder: UmuD-S60A, non-cleavable full-length UmuD variant (natural protein) MLFIKPADLREIVTFPLFSDLVQCGFPSPAADYVEQRIDLNQLLIQHPSATYFVKASGDAMIDGGISDGDLLIVDSAITASHGDIVIAAVDGEFTVKKLQLRPTVQLIPMNSAYSPITISSEDTLDVFGVVIHVVKAMR
reported: 0.7

binder: UmuD3A (UmuD containing the triple mutation T14A, L17A and F18A) (natural protein) MLFIKPADLREIVAFPAASDLVQCGFPSPAADYVEQRIDLNQLLIQHPSATYFVKASGDSMIDGGISDGDLLIVDSAITASHGDIVIAAVDGEFTVKKLQLRPTVQLIPMNSAYSPITISSEDTLDVFGVVIHVVKAMR
reported: 3.4

We now examine a further binder.
Reported Kd, binder UmuD′, cleaved form of UmuD (homodimer UmuD′2) (natural protein) GFPSPAADYVEQRIDLNQLLIQHPSATYFVKASGDSMIDGGISDGDLLIVDSAITASHGDIVIAAVDGEFTVKKLQLRPTVQLIPMNSAYSPITISSEDTLDVFGVVIHVVKAMR : ____ 3.8
